Cited source for all entries: patent US20240270762A1

# tested target: PBP3 from Pseudomonas aeruginosa (PAO1) (Pseudomonas aeruginosa, UniProt G3XD46)
# Sequence (G3XD46 whole entry): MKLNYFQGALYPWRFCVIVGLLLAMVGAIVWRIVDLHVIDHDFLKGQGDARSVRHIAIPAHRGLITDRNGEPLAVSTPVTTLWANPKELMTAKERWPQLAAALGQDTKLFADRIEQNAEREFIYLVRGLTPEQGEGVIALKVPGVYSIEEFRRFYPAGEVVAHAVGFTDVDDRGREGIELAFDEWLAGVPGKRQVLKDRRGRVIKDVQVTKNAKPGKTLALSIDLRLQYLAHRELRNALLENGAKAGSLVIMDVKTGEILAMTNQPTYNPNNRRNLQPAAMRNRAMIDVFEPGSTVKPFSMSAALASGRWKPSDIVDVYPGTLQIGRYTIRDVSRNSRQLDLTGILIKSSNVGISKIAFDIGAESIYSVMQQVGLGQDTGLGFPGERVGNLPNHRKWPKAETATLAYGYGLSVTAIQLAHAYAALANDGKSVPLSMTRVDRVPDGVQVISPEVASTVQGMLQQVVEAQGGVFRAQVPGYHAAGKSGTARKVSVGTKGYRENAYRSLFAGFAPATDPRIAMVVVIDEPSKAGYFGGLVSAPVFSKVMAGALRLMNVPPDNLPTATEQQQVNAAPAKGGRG
# protocol text: Bocillin-FL fluorescence polarization competition binding, P. aeruginosa PBP3
# condition notes: Binding affinity to P. aeruginosa PBP3; fluorescence polarization competition binding assay using Bocillin-FL; read-out: P. aeruginosa PBP3 Potency
pIC50: −log10 of the molar value.
measurement name: pIC50

Known pIC50 results, listed for orientation:
O=C(O)c1c(F)ccc2c1OB(O)[C@@H](NC(=O)[C@H](NC(=O)N1CCN(C3CCN(C(=O)Nc4cc(O)c(O)c(Cl)c4)CC3)C1=O)c1ccc(P(=O)(O)O)cc1)C2 (single isomer, unassigned) [Example 501] ... > 5.00
O=C(O)c1c(F)ccc2c1OB(O)[C@@H](NC(=O)[C@H](NC(=O)N1CCN(C3CCN(C(=O)c4cc(O)cc(F)c4)CC3)C1=O)c1cc(F)c(O)c(O)c1Cl)C2 (single isomer, unassigned) [Example 436] ... > 5.00
O=C(O)c1c(F)ccc2c1OB(O)[C@@H](NC(=O)C(NC(=O)N1CCN(S(=O)(=O)CCNC(=O)[C@@H]3CCCN3)C1=O)c1cc(F)c(O)c(O)c1Cl)C2 (stereo partly drawn) [Example 265] ... > 5.00
O=C(NCCS(=O)(=O)N1CCN(C(=O)NC(C(=O)N[C@H]2Cc3ccc(F)c(C(=O)O)c3OB2O)c2cc(F)c(O)c(O)c2Cl)C1=O)c1ccncc1 (stereo partly drawn) [Example 288] ... > 5.00
CCN1CCN(C(=O)N[C@@H](C(=O)N[C@H]2Cc3cccc(C(=O)O)c3OB2O)c2ccc(P(C)(=O)O)cc2)C(=O)C1=O (single isomer, unassigned) [Example 47] ... > 5.00
Nc1ncc(C(=O)N[C@@H](C(=O)N[C@H]2Cc3cccc(C(=O)O)c3OB2O)c2ccc(P(=O)(O)O)cc2)s1 (racemic) [Example 50] ... > 5.00
CS(=O)(=O)N1CCC[C@H]1C(=O)N[C@H](C(=O)N[C@H]1Cc2cccc(C(=O)O)c2OB1O)c1ccc(P(=O)(O)O)cc1 [Example 43] ... 3.60 to 4.30
O=C(O)c1c(F)ccc2c1OB(O)[C@@H](NC(=O)[C@H](NC(=O)N1CCN(C3CCN(C(=O)Nc4cccc(O)c4)CC3)C1=O)c1cc(F)c(O)c(O)c1Cl)C2 [Example 445] ... > 5.00

Ask: Please list pIC50 recorded for the molecule O=C(O)c1c(F)ccc2c1OB(O)[C@@H](NC(=O)[C@H](NC(=O)N1CCN(C3CCN(C(=O)c4cccnc4)CC3)C1=O)c1cc(F)c(O)c(O)c1Cl)C2 [Example 460]
Reply: > 5.00

Ask: Please list pIC50 recorded for the molecule CN(CCN1CCN(C(=O)N[C@@H](C(=O)N[C@H]2Cc3ccc(F)c(C(=O)O)c3OB2O)c2cc(F)c(O)c(O)c2Cl)C(=O)C1=O)Cc1nccs1 [Example 200]
Reply: > 5.00

Ask: Please list pIC50 recorded for the molecule O=C(CN1CCN(C(=O)NC(C(=O)N[C@H]2Cc3ccc(F)c(C(=O)O)c3OB2O)c2cc(F)c(O)c(O)c2Cl)C(=O)C1=O)NCc1cccnc1 (stereo partly drawn) [Example 240]
Reply: > 5.00

Ask: Please list pIC50 recorded for the molecule O=C(O)c1c(F)ccc2c1OB(O)[C@@H](NC(=O)C(NC(=O)N1CCN(C3CCN(C(=O)Nc4ccc(F)c(O)c4F)CC3)C1=O)c1cc(F)c(O)c(O)c1Cl)C2 (stereo partly drawn) [Example 452]
Reply: > 5.00

Ask: Please list pIC50 recorded for the molecule O=C(NCCS(=O)(=O)N1CCN(C(=O)N[C@H](C(=O)N[C@H]2Cc3ccc(F)c(C(=O)O)c3OB2O)c2ccc(P(=O)(O)O)cc2)C1=O)c1ccc(O)c(O)c1Cl [Example 167]
Reply: 3.60 to 4.30

Ask: Please list pIC50 recorded for the molecule CC(=O)NC(C(=O)N[C@H]1Cc2cccc(C(=O)O)c2OB1O)c1ccc(P(=O)(O)O)cc1 (stereo partly drawn) [Example 26]
Reply: 3.60 to 4.30

Ask: Please list pIC50 recorded for the molecule O=C(O)c1c(F)ccc2c1OB(O)[C@@H](NC(=O)C(NC(=O)N1CCN(C3CCN(C(=O)Nc4cc(O)cc(F)c4)CC3)C(=O)C1=O)c1cc(F)c(O)c(O)c1Cl)C2 (stereo partly drawn) [Example 481]
Reply: > 5.00

Ask: Please list pIC50 recorded for the molecule O=C(NC(C(=O)N[C@H]1Cc2cccc(C(=O)O)c2OB1O)c1ccc(P(=O)(O)O)cc1)c1ccc2ccnn2c1 (stereo partly drawn) [Example 498]
Reply: 4.30 to 5.00

----------
# Test system: P. aeruginosa ATCC 27853
# protocol text: microbe, parasite or virus in culture
# Format: cell-based
# condition notes: Pseudomonas aeruginosa, ATCC27853, read-out: Minimum inhibitory concentration, P. aeruginosa ATCC 27853
MIC by entry:

Known MIC results, listed for orientation:
O=C(O)c1c(F)ccc2c1OB(O)[C@@H](NC(=O)[C@@H](NC(=O)N1CCN(C3CCN(C(=O)c4ccc(O)cc4)CC3)C1=O)c1cc(F)c(O)c(O)c1Cl)C2 (single isomer, unassigned) ... 2 to 4 µg/mL
O=C(NCCS(=O)(=O)N1CCN(C(=O)NC(C(=O)N[C@H]2Cc3ccc(F)c(C(=O)O)c3OB2O)c2cc(F)c(O)c(O)c2Cl)C1=O)c1cccnc1 (some centres unmarked) ... < 1 µg/mL
O=C(NCCN1CCN(C(=O)NC(C(=O)N[C@H]2Cc3ccc(F)c(C(=O)O)c3OB2O)c2cc(F)c(O)c(O)c2Cl)C(=O)C1=O)c1cccc(O)c1 (some centres unmarked) ... 2 to 4 µg/mL

Ask: Report measured MIC on P. aeruginosa ATCC 27853; entry: O=C(NCCCN1CCN(C(=O)NC(C(=O)N[C@H]2Cc3ccc(F)c(C(=O)O)c3OB2O)c2cc(F)c(O)c(O)c2Cl)C(=O)C1=O)Nc1cccnc1 (some centres unmarked)
Reply: 2 to 4 µg/mL

Ask: Report measured MIC on P. aeruginosa ATCC 27853; entry: O=C(O)c1c(F)ccc2c1OB(O)[C@@H](NC(=O)C(NC(=O)N1CCN(C3CCN(C(=O)Cc4cccc(O)c4)CC3)C(=O)C1=O)c1cc(F)c(O)c(O)c1Cl)C2 (some centres unmarked)
Reply: 2 to 4 µg/mL

----------
# Test system: A. baumannii ATCC 17978
# protocol text: microbe, parasite or virus in culture
# Assay type: cell-based
# condition notes: Acinetobacter baumannii, ATCC17978, read-out: MIC, A. baumannii ATCC 17978
measurement name: MIC

O=C(O)c1c(F)ccc2c1OB(O)[C@@H](NC(=O)[C@H](NC(=O)N1CCN(C3CCN(C(=O)c4c(F)ccc(O)c4F)CC3)C1=O)c1cc(F)c(O)c(O)c1Cl)C2 (single isomer, unassigned) [Example 439] ... < 1 µg/mL
CN(CCCN1CCN(C(=O)NC(C(=O)N[C@H]2Cc3ccc(F)c(C(=O)O)c3OB2O)c2cc(F)c(O)c(O)c2Cl)C(=O)C1=O)C(=O)c1cccc(O)c1 (stereo partly drawn) [Example 310] ... < 1 µg/mL

Ask: Report measured MIC on A. baumannii ATCC 17978; entry: O=C(NCCCN1CCN(C(=O)NC(C(=O)N[C@H]2Cc3ccc(F)c(C(=O)O)c3OB2O)c2cc(F)c(O)c(O)c2Cl)C(=O)C1=O)c1cc(O)c(F)c(O)c1F (stereo partly drawn) [Example 415]
Reply: < 1 µg/mL

----------
# Tested on: A. baumannii CDC-0036
# protocol text: microbe, parasite or virus in culture
# Type: cell-based
# condition notes: Acinetobacter baumannii, CDC0036, read-out: MIC, A. baumannii CDC-0036
measurement name: MIC

O=C(O)c1c(F)ccc2c1OB(O)[C@@H](NC(=O)[C@@H](NC(=O)N1CCN(C3CCN(C(=O)c4ccc(O)cc4)CC3)C1=O)c1cc(F)c(O)c(O)c1Cl)C2 (single isomer, unassigned) ... 32 to 64 µg/mL
O=C(NCCN1CCN(C(=O)NC(C(=O)N[C@H]2Cc3ccc(F)c(C(=O)O)c3OB2O)c2cc(F)c(O)c(O)c2Cl)C1=O)c1cccnc1 (stereo partly drawn) ... 2 to 4 µg/mL

Turning now to a further record.
Ask: Report measured MIC on A. baumannii CDC-0036; entry: O=C(NCCCN1CCN(C(=O)N[C@@H](C(=O)N[C@H]2Cc3ccc(F)c(C(=O)O)c3OB2O)c2cc(F)c(O)c(O)c2Cl)C1=O)Nc1ccc(O)cc1
Reply: < 1 µg/mL

----------
# tested target: PBP1a from Acinetobacter baumannii (ATCC 19606) (Acinetobacter baumannii, UniProt A0ABX6CK30)
# Sequence (A0ABX6CK30 1-851): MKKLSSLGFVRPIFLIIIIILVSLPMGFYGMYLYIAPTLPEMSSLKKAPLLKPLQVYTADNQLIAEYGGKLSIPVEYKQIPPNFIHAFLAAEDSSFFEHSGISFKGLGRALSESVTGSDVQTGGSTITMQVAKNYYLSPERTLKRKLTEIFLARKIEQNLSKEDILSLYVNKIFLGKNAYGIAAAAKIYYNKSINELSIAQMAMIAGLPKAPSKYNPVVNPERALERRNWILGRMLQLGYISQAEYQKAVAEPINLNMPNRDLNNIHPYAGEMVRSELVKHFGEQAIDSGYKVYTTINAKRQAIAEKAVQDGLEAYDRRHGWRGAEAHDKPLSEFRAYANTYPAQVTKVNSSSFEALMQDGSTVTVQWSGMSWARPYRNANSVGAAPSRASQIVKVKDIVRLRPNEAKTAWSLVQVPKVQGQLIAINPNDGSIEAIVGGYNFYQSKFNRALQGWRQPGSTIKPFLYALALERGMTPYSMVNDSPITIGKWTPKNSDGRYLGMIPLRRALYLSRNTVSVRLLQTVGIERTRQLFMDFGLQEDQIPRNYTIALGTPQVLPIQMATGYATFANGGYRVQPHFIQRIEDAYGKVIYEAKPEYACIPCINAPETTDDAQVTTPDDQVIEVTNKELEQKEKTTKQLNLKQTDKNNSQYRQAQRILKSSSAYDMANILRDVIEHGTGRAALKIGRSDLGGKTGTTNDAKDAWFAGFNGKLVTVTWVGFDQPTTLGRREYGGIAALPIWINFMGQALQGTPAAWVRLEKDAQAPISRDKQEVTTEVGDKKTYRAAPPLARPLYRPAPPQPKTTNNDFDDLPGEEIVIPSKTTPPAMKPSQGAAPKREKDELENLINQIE
IC50 by entry:

Known IC50 results, listed for orientation:
O=C(O)c1c(F)ccc2c1OB(O)[C@@H](NC(=O)[C@H](NC(=O)N1CCN(C3CCN(C(=O)Nc4cccc(O)c4Cl)CC3)C(=O)C1=O)c1cc(F)c(O)c(O)c1Cl)C2 ... > 250 µM
O=C(NCCN1CCN(C(=O)NC(C(=O)N[C@H]2Cc3ccc(F)c(C(=O)O)c3OB2O)c2cc(F)c(O)c(O)c2Cl)C(=O)C1=O)c1ccncc1 (stereo partly drawn) ... > 250 µM

Turning now to a further record.
Ask: Please list IC50 recorded for the compound O=C(NCCCS(=O)(=O)N1CCN(C(=O)NC(C(=O)N[C@H]2Cc3ccc(F)c(C(=O)O)c3OB2O)c2cc(F)c(O)c(O)c2Cl)C1=O)c1ccccc1 (stereo partly drawn)
Reply: > 250 µM
